- Subject of test: T1, E. coli β clamp (β subunit of DNA polymerase III, dnaN gene product) (E. coli, UniProt P0A988 1-366)
- T1 construct: Expressed in BL21 E. coli from pET15b with an N-terminal tag; also called β ring; β protein; not shown: N-terminal tag from plasmid pET15b ('N-tagged protein', purified on Ni-NTA)
- Method summary: ITC, peptide 400 µM into β ring 20 µM, 25 °C
Square brackets hold non-standard residues; d marks the D form. Phe(3,4-Cl2) = N[C@@H](Cc1ccc(Cl)c(Cl)c1)C(=O)O; Phe(4-Br) = N[C@@H](Cc1ccc(Br)cc1)C(=O)O; Phe(4-Cl) = N[C@@H](Cc1ccc(Cl)cc1)C(=O)O; Phe(4-Me) = Cc1ccc(C[C@H](N)C(=O)O)cc1; Cha = N[C@@H](CC1CCCCC1)C(=O)O
Observation type: ΔG (kcal/mol)
Give bare numbers, in kcal/mol.

As a guide, the following entries are already answered.
Binder | Reported measurement
Ac-Q[Cha]DL[Phe(4-Me)]-OH (SMILES CC(=O)N[C@@H](CCC(N)=O)C(=O)N[C@@H](CC1CCCCC1)C(=O)N[C@@H](CC(=O)O)C(=O)N[C@@H](CC(C)C)C(=O)N[C@@H](Cc1ccc(C)cc1)C(=O)O, also called AcQChaDLpMeF; Ac-Q Cha DL pMeF) [P11 (Ac-Gln-Cha-Asp-Leu-pMePhe-OH)] | -8.6
Ac-Q[Cha]DL[Phe(3,4-Cl2)]-OH (SMILES CC(=O)N[C@@H](CCC(N)=O)C(=O)N[C@@H](CC1CCCCC1)C(=O)N[C@@H](CC(=O)O)C(=O)N[C@@H](CC(C)C)C(=O)N[C@@H](Cc1ccc(Cl)c(Cl)c1)C(=O)O, also called AcQChaDLdiClF; Ac Q Cha D L diClF) [P14 (Ac-Gln-Cha-Asp-Leu-(3,4-di-Cl)Phe-OH)] | -9.6
Ac-Q[Cha]DL[Phe(4-Cl)]-OH (SMILES CC(=O)N[C@@H](CCC(N)=O)C(=O)N[C@@H](CC1CCCCC1)C(=O)N[C@@H](CC(=O)O)C(=O)N[C@@H](CC(C)C)C(=O)N[C@@H](Cc1ccc(Cl)cc1)C(=O)O, also called AcQChaDLpClF; Ac-Q Cha DL pClF) [P12 (Ac-Gln-Cha-Asp-Leu-pClPhe-OH)] | -9.6

Please find the next binder below.
Noted for Ac-Q[Cha]DL[Phe(4-Br)]-OH (SMILES CC(=O)N[C@@H](CCC(N)=O)C(=O)N[C@@H](CC1CCCCC1)C(=O)N[C@@H](CC(=O)O)C(=O)N[C@@H](CC(C)C)C(=O)N[C@@H](Cc1ccc(Br)cc1)C(=O)O, also called AcQChaDLpBrF; Ac-Q Cha DL pBrF) [P13 (Ac-Gln-Cha-Asp-Leu-pBrPhe-OH)] : its ΔG reads -9.3
